Tested on: Mycobacterium tuberculosis Erdman (autoluminescent)
Assay: GRinf, maximum normalised growth rate inhibition (three-drug combination) (unitless (-1 to 1)); higher = less effect (negative = killing)
Conditions: in vitro model: cholesterol 0.05 mM; time point: constant (~7 days, model-specific)
GRinf below -0.2 gives Not fulfilled; GRinf at or above it gives Fulfilled.

Field: example entries. Status: answers known.
[[record]]
compound = "COc1c(N2C[C@@H]3CCCN[C@@H]3C2)c(F)cc2c(=O)c(C(=O)O)cn(C3CC3)c12 [moxifloxacin] + NC(=O)c1cnccn1 [pyrazinamide] + CO[C@H]1/C=C/O[C@@]2(C)Oc3c(C)c(O)c4c(O)c(c(/C=N/N5CCN(C6CCCC6)CC5)c(O)c4c3C2=O)NC(=O)/C(C)=C\\C=C\\[C@H](C)[C@H](O)[C@@H](C)[C@@H](O)[C@@H](C)[C@H](OC(C)=O)[C@@H]1C"
cat = "Not fulfilled"

[[record]]
compound = "CC[C@@H](CO)NCCN[C@@H](CC)CO [ethambutol] + COc1c(N2C[C@@H]3CCCN[C@@H]3C2)c(F)cc2c(=O)c(C(=O)O)cn(C3CC3)c12 [moxifloxacin] + O=[N+]([O-])c1cn2c(n1)OC[C@@H](OCc1ccc(OC(F)(F)F)cc1)C2 [pretomanid]"
cat = "Not fulfilled"

[[record]]
compound = "COc1nc2ccc(Br)cc2cc1[C@@H](c1ccccc1)[C@@](O)(CCN(C)C)c1cccc2ccccc12 [bedaquiline] + CC[C@@H](CO)NCCN[C@@H](CC)CO [ethambutol] + CC(=O)NC[C@H]1CN(c2ccc(N3CCOCC3)c(F)c2)C(=O)O1 [linezolid]"
cat = "Not fulfilled"

[[record]]
compound = "COc1nc2ccc(Br)cc2cc1[C@@H](c1ccccc1)[C@@](O)(CCN(C)C)c1cccc2ccccc12 [bedaquiline] + CC(=O)NC[C@H]1CN(c2ccc(N3CCOCC3)c(F)c2)C(=O)O1 [linezolid] + NC(=O)c1cnccn1 [pyrazinamide]"
cat = "Not fulfilled"


API: above_or_equal(metric=GRinf, cutoff=-0.2) for item NNC(=O)c1ccncc1 [isoniazid] + COc1c(N2C[C@@H]3CCCN[C@@H]3C2)c(F)cc2c(=O)c(C(=O)O)cn(C3CC3)c12 [moxifloxacin] + CO[C@H]1/C=C/O[C@@]2(C)Oc3c(C)c(O)c4c(O)c(c(/C=N/N5CCN(C6CCCC6)CC5)c(O)c4c3C2=O)NC(=O)/C(C)=C\C=C\[C@H](C)[C@H](O)[C@@H](C)[C@@H](O)[C@@H](C)[C@H](OC(C)=O)[C@@H]1C [rifapentine]
Fulfilled
